EXPERIMENTAL_TARGET: Grp94-C (601–754) (canine, UniProt P41148 601-754)
Sequence (P41148 601-754): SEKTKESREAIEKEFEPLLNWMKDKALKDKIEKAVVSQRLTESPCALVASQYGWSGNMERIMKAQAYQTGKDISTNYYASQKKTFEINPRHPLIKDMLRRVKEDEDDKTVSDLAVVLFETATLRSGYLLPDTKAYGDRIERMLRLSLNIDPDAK
EXPERIMENT_SUMMARY: ITC
READOUT_KIND: Kd (µM)

binder="OS-9 CTE (589–666) (domain or fragment, rat, UniProt Q5RKH6 589-666, looked up) KIEIKIVRPGAEGKEEDTRWLTDEDTRNLKEIFFNILVQGAEEANKERQRQSELESNYRRVWGSPGGEDTGDLDEFDF" readout_kind=Kd assay_value=15
